procedure.text: Ratio of Kd for 5'-FAM-pre-miR-372 (unknown origin) in presence of 100-fold excess of Escherichia coli tRNA to Kd for 5'-FAM-pre-miR-372 (unknown origin)
Rule: Ratio below 2 gives Yes, anything at or above gives No.

compound_string=CN(C)c1ccc(O)c2c1C[C@H]1C[C@H]3[C@H](N(C)C)C(O)=C(C(N)=O)C(=O)[C@@]3(O)C(O)=C1C2=O category=No
compound_string=CC[C@H]1OC(=O)[C@H](C)[C@@H](O[C@H]2C[C@@](C)(OC)[C@@H](O)[C@H](C)O2)[C@H](C)[C@@H](O[C@@H]2O[C@H](C)C[C@H](N(C)C)[C@H]2O)[C@](C)(O)C[C@@H](C)C(=O)[C@H](C)[C@@H](O)[C@]1(C)O category=Yes
compound_string=NC[C@H]1O[C@H](O[C@H]2[C@H](O)[C@@H](O)[C@H](N)C[C@@H]2N)[C@H](N)[C@@H](O)[C@@H]1O category=No
compound_string=NC[C@@H]1O[C@H](O[C@H]2[C@@H](O)[C@H](O[C@@H]3[C@@H](O)[C@H](N)C[C@H](N)[C@H]3O[C@H]3O[C@H](CN)[C@@H](O)[C@H](O)[C@H]3N)O[C@@H]2CO)[C@H](N)[C@@H](O)[C@@H]1O category=Yes

---

procedure.text: Inhibition of pre-miR-373 (unknown origin) cleavage assessed as reduction of oncogenic microRNAs biogenesis by measuring fluorescence every minute for 5 hrs using 5'-FAM,3'-dabcyl-pre-miRNA beacons by FRET assay in presence of recombinant Dicer
assay.metric: IC50

residue_codes=GENTAMICIN observed_result="159 µM"

---

Reported Kd is given for each of the following compounds.
procedure.text: Binding affinity to 5'-FAM-pre-miR-373 (unknown origin) after 4 hrs by fluorescence assay
reported.conditions: read-out: Kd
assay.metric: Kd (µM)

compound_string=CC[C@H]1OC(=O)[C@H](C)[C@@H](O[C@H]2C[C@@](C)(OC)[C@@H](O)[C@H](C)O2)[C@H](C)[C@@H](O[C@@H]2O[C@H](C)C[C@H](N(C)C)[C@H]2O)[C@](C)(O)C[C@@H](C)C(=O)[C@H](C)[C@@H](O)[C@]1(C)O observed_result=6.51
compound_string=NC[C@@H]1O[C@H](O[C@H]2[C@@H](O)[C@H](O[C@@H]3[C@@H](O)[C@H](N)C[C@H](N)[C@H]3O[C@H]3O[C@H](CO)[C@@H](O)[C@H](O)[C@H]3N)O[C@@H]2CO)[C@H](N)[C@@H](O)[C@@H]1O observed_result=91.2
compound_string=COc1ccc(C[C@H](N)C(=O)N[C@H]2[C@@H](O)[C@H](n3cnc4c(N(C)C)ncnc43)O[C@@H]2CO)cc1 observed_result=12.7
compound_string=CN[C@@H]1[C@H](O[C@H]2[C@H](O[C@H]3[C@H](O)[C@@H](O)[C@H](N=C(N)N)[C@@H](O)[C@@H]3N=C(N)N)O[C@@H](C)[C@]2(O)C=O)O[C@@H](CO)[C@H](O)[C@H]1O observed_result=45
compound_string=NC[C@H]1O[C@H](O[C@H]2[C@H](O)[C@@H](O)[C@H](N)C[C@@H]2N)[C@H](N)[C@@H](O)[C@@H]1O observed_result=187
compound_string=CN(C)c1ccc(O)c2c1C[C@H]1C[C@H]3[C@H](N(C)C)C(O)=C(C(N)=O)C(=O)[C@@]3(O)C(O)=C1C2=O observed_result=0.597
compound_string=CN(C)[C@@H]1C(O)=C(C(N)=O)C(=O)[C@@]2(O)C(O)=C3C(=O)c4c(O)cccc4[C@@](C)(O)[C@H]3[C@H](O)[C@@H]12 observed_result=5.2

---

procedure.text: Binding affinity to 5'-FAM-pre-miR-372 (unknown origin) after 4 hrs by fluorescence assay in presence of 100-fold excess of 15-mer DNA
Reported log10(Kd) is given for each of the following compounds.
assay.metric: log10(Kd) (log10 of the value in µM)

compound_string=CN[C@@H]1[C@H](O[C@H]2[C@H](O[C@H]3[C@H](O)[C@@H](O)[C@H](N=C(N)N)[C@@H](O)[C@@H]3N=C(N)N)O[C@@H](C)[C@]2(O)C=O)O[C@@H](CO)[C@H](O)[C@H]1O assay_metric=log10(Kd) observed_result=1.68
compound_string=CC[C@H]1OC(=O)[C@H](C)[C@@H](O[C@H]2C[C@@](C)(OC)[C@@H](O)[C@H](C)O2)[C@H](C)[C@@H](O[C@@H]2O[C@H](C)C[C@H](N(C)C)[C@H]2O)[C@](C)(O)C[C@@H](C)C(=O)[C@H](C)[C@@H](O)[C@]1(C)O assay_metric=log10(Kd) observed_result=1.49
compound_string=CN(C)c1ccc(O)c2c1C[C@H]1C[C@H]3[C@H](N(C)C)C(O)=C(C(N)=O)C(=O)[C@@]3(O)C(O)=C1C2=O assay_metric=log10(Kd) observed_result=0.16
compound_string=NC[C@@H]1O[C@H](O[C@H]2[C@@H](O)[C@H](O[C@@H]3[C@@H](O)[C@H](N)C[C@H](N)[C@H]3O[C@H]3O[C@H](CO)[C@@H](O)[C@H](O)[C@H]3N)O[C@@H]2CO)[C@H](N)[C@@H](O)[C@@H]1O assay_metric=log10(Kd) observed_result=2.22
compound_string=CC[C@H]1OC(=O)[C@H](C)[C@@H](O[C@H]2C[C@@](C)(OC)[C@@H](O)[C@H](C)O2)[C@H](C)[C@@H](O[C@@H]2O[C@H](C)C[C@H](N(C)C)[C@H]2O)[C@](C)(O)C[C@@H](C)CN(C)[C@H](C)[C@@H](O)[C@]1(C)O assay_metric=log10(Kd) observed_result=0.87

---

procedure.text: Inhibition of pre-miR-21 (unknown origin) cleavage assessed as reduction of oncogenic microRNAs biogenesis at 200 uM by measuring fluorescence every minute for 5 hrs using 5'-FAM,3'-dabcyl-pre-miRNA beacons by FRET assay in presence of recombinant Dicer
Reported inhibition is given for each of the following compounds.
assay.metric: inhibition

compound="CN[C@@H]1[C@@H](O[C@H]2O[C@H](CO)[C@@H](N)[C@H](O)[C@H]2O)OC2C[C@@H](N)[C@@H](O[C@H]3[C@H](O)[C@@H](O)[C@H](N)C[C@@H]3N)OC2[C@@H]1O (stereo partly drawn) [APRAMYCIN]" observed_result=60%
compound="NC[C@H]1O[C@H](O[C@H]2[C@H](O)[C@@H](O)[C@H](N)C[C@@H]2N)[C@H](N)[C@@H](O)[C@@H]1O [NEAMINE]" observed_result=10%

---

Reported inhibition is given for each of the following molecules.
procedure.text: Inhibition of pre-miR-17 (unknown origin) cleavage assessed as reduction of oncogenic microRNAs biogenesis at 200 uM by measuring fluorescence every minute for 5 hrs using 5'-FAM,3'-dabcyl-pre-miRNA beacons by FRET assay in presence of recombinant Dicer
assay.metric: inhibition (%)

molecule="CN[C@@H]1[C@@H](O[C@H]2O[C@H](CO)[C@@H](N)[C@H](O)[C@H]2O)OC2C[C@@H](N)[C@@H](O[C@H]3[C@H](O)[C@@H](O)[C@H](N)C[C@@H]3N)OC2[C@@H]1O (some centres undefined) [APRAMYCIN]" assay_metric=inhibition scale_unit=% observed_result=60
molecule="NC[C@@H]1O[C@H](O[C@H]2[C@@H](O)[C@H](O[C@@H]3[C@@H](O)[C@H](N)C[C@H](N)[C@H]3O[C@H]3O[C@H](CO)[C@@H](O)[C@H](O)[C@H]3N)O[C@@H]2CO)[C@H](N)[C@@H](O)[C@@H]1O [PAROMOMYCIN]" assay_metric=inhibition scale_unit=% observed_result=10
molecule="CN(C)[C@@H]1C(O)=C(C(N)=O)C(=O)[C@@]2(O)C(O)=C3C(=O)c4c(O)cccc4[C@@](C)(O)[C@H]3[C@H](O)[C@@H]12 [OXYTETRACYCLINE]" assay_metric=inhibition scale_unit=% observed_result=10
molecule="NC[C@@H]1O[C@H](O[C@H]2[C@@H](O)[C@H](O[C@@H]3[C@@H](O)[C@H](N)C[C@H](N)[C@H]3O[C@H]3O[C@H](CN)[C@@H](O)[C@H](O)[C@H]3N)O[C@@H]2CO)[C@H](N)[C@@H](O)[C@@H]1O [FRAMYCETIN]" assay_metric=inhibition scale_unit=% observed_result=60

---

procedure.text: Binding affinity to 5'-FAM-pre-miR-17 (unknown origin) after 4 hrs by fluorescence assay
reported.conditions: read-out: Kd
pKd: −log10 of the molar value.
Reported pKd is given for each of the following molecules.
assay.metric: pKd

molecule=CN[C@@H]1[C@H](O[C@H]2[C@H](O[C@H]3[C@H](O)[C@@H](O)[C@H](N=C(N)N)[C@@H](O)[C@@H]3N=C(N)N)O[C@@H](C)[C@]2(O)C=O)O[C@@H](CO)[C@H](O)[C@H]1O assay_metric=pKd observed_result=4.73
molecule=CN(C)[C@@H]1C(O)=C(C(N)=O)C(=O)[C@@]2(O)C(O)=C3C(=O)c4c(O)cccc4[C@@](C)(O)[C@H]3[C@H](O)[C@@H]12 assay_metric=pKd observed_result=5.21
molecule=NC[C@@H]1O[C@H](O[C@H]2[C@@H](O)[C@H](O[C@@H]3[C@@H](O)[C@H](N)C[C@H](N)[C@H]3O[C@H]3O[C@H](CN)[C@@H](O)[C@H](O)[C@H]3N)O[C@@H]2CO)[C@H](N)[C@@H](O)[C@@H]1O assay_metric=pKd observed_result=5.73
molecule=NC[C@@H]1O[C@H](O[C@H]2[C@@H](O)[C@H](O[C@@H]3[C@@H](O)[C@H](N)C[C@H](N)[C@H]3O[C@H]3O[C@H](CO)[C@@H](O)[C@H](O)[C@H]3N)O[C@@H]2CO)[C@H](N)[C@@H](O)[C@@H]1O assay_metric=pKd observed_result=4.36
molecule=CC[C@H]1OC(=O)[C@H](C)[C@@H](O[C@H]2C[C@@](C)(OC)[C@@H](O)[C@H](C)O2)[C@H](C)[C@@H](O[C@@H]2O[C@H](C)C[C@H](N(C)C)[C@H]2O)[C@](C)(O)C[C@@H](C)CN(C)[C@H](C)[C@@H](O)[C@]1(C)O assay_metric=pKd observed_result=5.79
molecule=NC[C@H]1O[C@H](O[C@H]2[C@H](O)[C@@H](O)[C@H](N)C[C@@H]2N)[C@H](N)[C@@H](O)[C@@H]1O assay_metric=pKd observed_result=4.60
molecule="CN[C@@H]1[C@@H](O[C@H]2O[C@H](CO)[C@@H](N)[C@H](O)[C@H]2O)OC2C[C@@H](N)[C@@H](O[C@H]3[C@H](O)[C@@H](O)[C@H](N)C[C@@H]3N)OC2[C@@H]1O (stereo partly specified)" assay_metric=pKd observed_result=5.99
molecule=CN(C)c1ccc(O)c2c1C[C@H]1C[C@H]3[C@H](N(C)C)C(O)=C(C(N)=O)C(=O)[C@@]3(O)C(O)=C1C2=O assay_metric=pKd observed_result=6.19
molecule=COc1ccc(C[C@H](N)C(=O)N[C@H]2[C@@H](O)[C@H](n3cnc4c(N(C)C)ncnc43)O[C@@H]2CO)cc1 assay_metric=pKd observed_result=5.23
molecule=C[C@H]1c2cccc(O)c2C(=O)C2=C(O)[C@]3(O)C(=O)C(C(N)=O)=C(O)[C@@H](N(C)C)[C@@H]3[C@@H](O)[C@@H]21 assay_metric=pKd observed_result=6.03
molecule=CC[C@H]1OC(=O)[C@H](C)[C@@H](O[C@H]2C[C@@](C)(OC)[C@@H](O)[C@H](C)O2)[C@H](C)[C@@H](O[C@@H]2O[C@H](C)C[C@H](N(C)C)[C@H]2O)[C@](C)(O)C[C@@H](C)C(=O)[C@H](C)[C@@H](O)[C@]1(C)O assay_metric=pKd observed_result=4.56

Where do these numbers come from? They come from ChEMBL document CHEMBL3603759.
